Exercise: state measured Percent Control for each of the molecules provided.
# Tested on: EGFR(L858R);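 further: KINOMEscan scanMAX binding as percent activity remaining versus control; lower means stronger binding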
# Experimental Parameters: Compound Concentration (nM):1000
Kindly report the value followed by its unit.

Specify Percent Control for COc1cc(C=NNc2ncnc3c2cnn3-c2ccccc2)ccc1O [GW513184X] , system EGFR(L858R). 96%

Specify Percent Control for COc1ccc(COc2ccc(Cc3cnc(N)nc3N)cc2OC)cc1 [GW632580X] , system EGFR(L858R). 86%

Specify Percent Control for CCn1c(-c2nonc2N)nc2c(C#CC(C)(C)O)nc(OCCNC)cc21.Cl [GSK949675] , system EGFR(L858R). 100%

Specify Percent Control for NS(=O)(=O)c1ccc(N/N=C2\C(=O)Nc3ccc(C(=O)NCc4ccncc4)cc32)cc1 [GW300657X] , system EGFR(L858R). 94%

Specify Percent Control for CCS(=O)(=O)c1ccc(OC)c(Nc2ncc(-c3cccc(OC)c3)o2)c1 [GW580509X] , system EGFR(L858R). 80%

Specify Percent Control for CCS(=O)(=O)c1ccc(OC)c(Nc2ncc(-c3cccc(F)c3)o2)c1 [GW621970X] , system EGFR(L858R). 92%

Specify Percent Control for COc1ccc2cc(-c3c(-c4ccncc4)nc(-c4ccc(S(C)(=O)=O)cc4C)n3C)ccc2c1 [SB-633825] , system EGFR(L858R). 63%

Specify Percent Control for CC1=C(C(=O)Nc2ccc3[nH]ncc3c2)C(c2ccc3ccccc3c2)CC(=O)N1 (stereo not shown) [GSK270822A] , system EGFR(L858R). 100%

Specify Percent Control for Cl.c1ccc(Cc2nc3ccc(Nc4ncnc5ccccc45)cc3[nH]2)cc1 [GR269666A] , system EGFR(L858R). 36%

Specify Percent Control for NS(=O)(=O)c1ccc(Nc2ncc(-c3ccccc3)o2)cc1 [GW572399X] , system EGFR(L858R). 88%
